The entries below come with measured TGI values attached.
Test system: SK-MEL-28 melanoma
Experiment: NCI tumour cell line growth inhibition, 48 h
OBSERVATION_TYPE: TGI

- CC(C)(C)c1ccc(C(C)(C)C)c(N2C(=O)[C@@H]3[C@@H]4C=C[C@@H](C4)[C@]3(C)C2=O)c1: > 100 µM
- COc1cc2c(cc1I)-c1c(cc(OC)c(OC)c1OC)CC[C@@H]2NC(C)=O: 19.1 µM
- O=C(Nc1nc(-c2ccc(Cl)cc2)cs1)c1cc(-c2ccc(Br)cc2)nc2ccc(Cl)cc12: > 100 µM
- CC1=NC(C)(C)[N+]([O-])=C1: > 10 µM
- O=C(NN1C(=O)C(Cl)C1c1ccc(O)cc1)c1ccccc1O (configuration not stated): 36.5 µM
- C=CCN1CCN([C@H](c2ccc(C(=O)N(CC)CC)cc2)c2cccc(OC)c2)CC1: > 25 µM
- O=c1c(-c2ccccc2)c2n(c3ccccc13)CCN2: > 100 µM
- C[N+](C)(C)CCN(Cc1cccs1)c1ccccn1: > 100 µM
- C[C@@]1(Br)C[C@@](C)(Cl)[C@@H](Br)CC1/C=C/Cl (some centres not stated): 53.7 µM
- COc1c(C)c(O)c2c(=O)cc(-c3ccccc3)oc2c1C: > 100 µM
- CCC[CH2][Sn]1([CH2]CCC)[O]C(=O)c2cccc(C)c2[O]1: 1.51 µM
- CCCCCCCCOCC(CO)OCCCCCCCC (configuration not stated): 34.2 µM
- Cc1ccc(C(=O)O)cc1NC(=O)c1cc(/C=C/c2ccccc2)[nH]c(=S)n1: > 100 µM
- C/C(=C\COc1cc(O)c2c(c1)C(=O)c1cc(C)cc(O)c1C2=O)CCC1OC1(C)C (configuration not stated): > 100 µM
- Cc1nn(C(=O)c2ccccc2O)c2c1C(c1ccc3ccccc3c1O)SC(N)=N2 (configuration not stated): > 10 µM
- CC1(CO)COC(C)(C)OC1: > 100 µM
- O=C1C(c2c(O)[nH]c3ccc([N+](=O)[O-])cc23)=Nc2ccccc21: > 100 µM
- COc1ccc(C(=O)NCCC2CN(S(=O)(=O)C(F)(F)F)c3ccccc32)c(OC)c1 (configuration not stated): > 100 µM
- O=C1Nc2cc(Cl)ccc2C(=O)N2CCC[C@@H]12: > 100 µM
- [N-]=[N+]=NCCCn1c2c(c3cc4c(cc3c1=O)OCO4)C(=O)c1ccccc1-2: > 100 µM
- O=C(COc1nc2ccccc2nc1-c1ccccc1)Nc1ccc(Cl)cc1: > 100 µM
- O=C1C(Cl)=C(N2CCN(CCOCCO)CC2)C(=O)c2ncccc21: > 10 µM
